Biological target: UniProt:P20393
Sequence (P20393 whole entry, looked up): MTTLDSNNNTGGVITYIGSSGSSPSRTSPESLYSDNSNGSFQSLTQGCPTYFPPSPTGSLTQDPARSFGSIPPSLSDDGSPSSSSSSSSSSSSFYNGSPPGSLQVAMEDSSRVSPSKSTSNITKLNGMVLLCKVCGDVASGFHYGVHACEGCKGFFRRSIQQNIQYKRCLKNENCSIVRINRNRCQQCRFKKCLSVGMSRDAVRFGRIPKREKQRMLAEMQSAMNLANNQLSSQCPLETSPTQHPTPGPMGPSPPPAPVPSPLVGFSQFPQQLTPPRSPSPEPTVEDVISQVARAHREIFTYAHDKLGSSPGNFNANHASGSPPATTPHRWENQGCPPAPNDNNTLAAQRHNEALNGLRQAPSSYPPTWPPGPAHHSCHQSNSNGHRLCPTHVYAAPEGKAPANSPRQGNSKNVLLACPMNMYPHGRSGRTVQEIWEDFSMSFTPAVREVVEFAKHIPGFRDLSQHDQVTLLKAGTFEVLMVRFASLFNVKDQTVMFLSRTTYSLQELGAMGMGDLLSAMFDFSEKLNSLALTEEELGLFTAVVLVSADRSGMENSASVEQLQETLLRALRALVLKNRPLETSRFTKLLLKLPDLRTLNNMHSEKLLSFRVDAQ
Assay: modulators of Rev-erb alpha DNA binding, dose response, biochemical, FITC-DNA, fluorescence polarization (AID 1259321)
The source made the active and inactive calls.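 The calls were made as follows: active = half-maximal concentration for changing protein binding to DNA, from the fitted dose curve, below 10 micromolar; inactive = the rest.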
Pick one and only one: active, inactive

Ask: Write down the call the test reported for this molecule. Item: "CC(=O)c1ccc(S(=O)(=O)N2CCN(c3nc4c(C)c(C)ccc4cc3C#N)CC2)cc1"
Result: active

Ask: Write down the call the test reported for this molecule. Item: "CC(=O)NC(=S)Nc1ccc2oc(-c3cc(F)c(F)cc3Cl)nc2c1"
Result: active

Ask: Write down the call the test reported for this molecule. Item: "COc1cc(OC)cc(-c2c(C#Cc3ccsc3)c3cc(-c4ccc(SC)cc4)ccc3n2C)c1"
Result: active

Ask: Write down the call the test reported for this molecule. Item: "Fc1ccc(-n2c(-c3cccs3)nc3nc4ccccc4nc32)cc1"
Result: active

Ask: Write down the call the test reported for this molecule. Item: "CCN1C(=O)/C(=C/C=C2/SCCN2C)SC1=S"
Result: inactive

Measured values drawn from PubChem BioAssay AID1259321 for this set.
